test system: MCF7 breast; assay: NCI-60 one-dose screen, 48 h (100 = growth as untreated, 0 = no growth, -100 = all killed); settings: 10 µM unless noted
Compounds without any hit were thinned out: in the full panel of roughly 83,000, 20% have a hit.
I'd be grateful if you could share measured growth for these entries.
Unit % implied. Number only.

Query: // Input: CC[C@H](C)[C@H](NC(=O)C12CC(NC)(C1)C2)C(=O)N(C)[C@H](C[C@@H](OC(C)=O)c1nc(C(=O)N[C@@H](Cc2ccccc2)C[C@H](C)C(=O)OC)cs1)C(C)C . Output its growth only.
Reply: 15

Query: // Input: CC/C(Cc1ccccc1)=C(\c1ccc(OCCN2CCCC2)cc1)c1ccc(OC(=O)NCc2ccccc2)cc1 . Output its growth only.
Reply: -11.1

Query: // Input: COc1ccc2c(c1)c(-c1nc(-c3c[nH]c4ncccc34)cs1)cn2CCCCN1CCOCC1 . Output its growth only.
Reply: 18.1

Query: // Input: C/C(=C\c1ccn(-c2ccc(N)cc2F)n1)[C@@H]1C[C@@H]2O[C@]2(C)CCC[C@H](C)[C@H](O)[C@@H](C)C(=O)C(C)(C)[C@@H](O)CC(=O)O1 . Output its growth only.
Reply: 16.7

Query: // Input: N#CC(C#N)=Cc1cccc(F)c1 . Output its growth only.
Reply: 101

Query: // Input: CC(=O)C(N)Cc1ccccc1 (stereo not given) . Output its growth only.
Reply: 93.6

Query: // Input: CC(C)c1cccc(C(C)C)c1O . Output its growth only.
Reply: 91.1

Query: // Input: N#Cc1ccc(Cl)cc1 . Output its growth only.
Reply: 103

Query: // Input: ClC1OC(Cl)(Cl)C(Cl)(Cl)OC1(Cl)Cl (stereo not given) . Output its growth only.
Reply: 76.9

Query: // Input: O=P1(N(CCCl)CCCl)NCCCO1 (stereo not given) . Output its growth only.
Reply: 96.8

Query: // Input: COC(=O)C12C3C4C1C1C2C3C41NC(=O)c1csc([C@@H](C[C@H](C(C)C)N(C)C(=O)[C@@H](NC(=O)[C@H]2CCCCN2C)C2CC2)OC(C)=O)n1 (stereo not given in full) . Output its growth only.
Reply: 18.8

Query: // Input: O=C(Cc1ccccc1)NC(O)C(Cl)(Cl)Cl (stereo not given) . Output its growth only.
Reply: 93.1

Query: // Input: C[C@@]12CCCc3coc(c31)C(=O)c1cc3c(cc12)C(=O)C1=C(NCCS1(=O)=O)C3=O . Output its growth only.
Reply: -54.1

Query: // Input: O=c1c2ccccc2nc(-c2ccccc2Cl)n1-c1nnc(C(F)(F)F)s1 . Output its growth only.
Reply: 21.4

Query: // Input: CO/N=C1\CC[C@]2(C)[C@H]3CC[C@]4(C)C(=O)CC[C@H]4[C@@H]3C[C@@H]3SC(N)=N[C@@]32C1 . Output its growth only.
Reply: 89.1

Query: // Input: CC1(C)CN=C(NN=C(/C=C/c2ccc(C(F)(F)F)cc2)/C=C/c2ccc(C(F)(F)F)cc2)NC1 . Output its growth only.
Reply: -99.5

Query: // Input: O=[N+]([O-])c1c(Cl)cc(Cl)c([N+](=O)[O-])c1Cl . Output its growth only.
Reply: 45.9

Query: // Input: Cc1cc(NC(=O)NCCCOc2ccc(N3C(N)=NC(N)=NC3(C)C)cc2Cl)ccc1S(=O)(=O)F . Output its growth only.
Reply: 25.5

Query: // Input: COC12CC3C4=CCOC5CC(=O)N6c7ccccc7C1(CCN2C4)C6C53 (stereo not given) . Output its growth only.
Reply: 95.2

Query: // Input: COc1ccc(N)cc1N . Output its growth only.
Reply: 94.8
